Measured IC50, listed per entry.
target: ERBB2/HER2 (Homo sapiens, UniProt P04626); test: Reaction Biology kinase activity assay (33P-ATP, HotSpot); type: biochemical; conditions: final enzyme concentration 50 nM; 100 μM 33P-ATP; 20 min preincubation, 2 hours at 25° C.
Write the value in nM as a bare number.

>>> recorded_measurement("Cc1cc(Nc2ncnc3ccc(NC4=NC(C)(C)CO4)cc23)ccc1Oc1ccn2ncnc2c1 [Tucatinib, tucatinib, reference compound]")
3.07

Here is another compound to look at.
Task item: Answer with IC50 of "CC#CC(=O)Nc1ccc2ncnc(Nc3ccc(Oc4ccn5ncnc5c4)c(C)c3)c2c1" measured for ERBB2/HER2 (Homo sapiens, UniProt P04626).
Reply: 0.49

----------
Target: Ba/F3 ERBB2-P780_Y781insGSP (Homo sapiens, UniProt P04626, DUP778-780, cells depend on it)
Construct: Ba/F3 cell lines were engineered to express human ERBB2 or EGFR kinases, rendering the cells IL-3 independent
Sequence (P04626 with tags, fused parts or gaps DUP778-780): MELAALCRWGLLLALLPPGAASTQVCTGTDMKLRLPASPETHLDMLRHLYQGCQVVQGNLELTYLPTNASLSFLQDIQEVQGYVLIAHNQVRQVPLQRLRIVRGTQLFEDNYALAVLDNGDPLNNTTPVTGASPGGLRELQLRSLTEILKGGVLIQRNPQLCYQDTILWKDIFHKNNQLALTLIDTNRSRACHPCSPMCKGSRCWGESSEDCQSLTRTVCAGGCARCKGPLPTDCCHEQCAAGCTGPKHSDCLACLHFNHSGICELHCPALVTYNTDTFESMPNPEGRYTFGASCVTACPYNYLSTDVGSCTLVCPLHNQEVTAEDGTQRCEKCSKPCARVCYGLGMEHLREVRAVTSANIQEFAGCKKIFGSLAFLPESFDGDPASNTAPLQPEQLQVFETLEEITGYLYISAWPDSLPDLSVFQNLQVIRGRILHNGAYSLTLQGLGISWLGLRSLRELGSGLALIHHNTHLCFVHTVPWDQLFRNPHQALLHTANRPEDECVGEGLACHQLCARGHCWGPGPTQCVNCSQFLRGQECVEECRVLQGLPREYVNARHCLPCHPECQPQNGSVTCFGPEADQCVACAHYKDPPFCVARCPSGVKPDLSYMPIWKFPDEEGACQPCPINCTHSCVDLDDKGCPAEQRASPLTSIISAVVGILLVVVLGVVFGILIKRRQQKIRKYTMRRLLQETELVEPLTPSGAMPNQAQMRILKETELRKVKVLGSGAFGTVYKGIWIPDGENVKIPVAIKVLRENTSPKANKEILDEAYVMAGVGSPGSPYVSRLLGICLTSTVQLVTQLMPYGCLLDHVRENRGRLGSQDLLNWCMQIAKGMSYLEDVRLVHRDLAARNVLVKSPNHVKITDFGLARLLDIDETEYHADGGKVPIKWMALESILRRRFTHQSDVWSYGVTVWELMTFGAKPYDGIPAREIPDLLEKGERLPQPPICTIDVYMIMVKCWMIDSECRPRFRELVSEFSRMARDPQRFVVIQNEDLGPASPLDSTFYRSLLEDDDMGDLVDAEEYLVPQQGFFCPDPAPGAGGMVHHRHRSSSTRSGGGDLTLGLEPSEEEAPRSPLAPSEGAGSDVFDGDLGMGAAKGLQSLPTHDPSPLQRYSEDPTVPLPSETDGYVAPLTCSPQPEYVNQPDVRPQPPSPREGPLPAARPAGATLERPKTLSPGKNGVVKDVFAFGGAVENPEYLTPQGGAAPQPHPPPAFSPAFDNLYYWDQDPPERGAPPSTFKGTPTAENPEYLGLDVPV
Experiment: Cell viability assay (CellTiter Glo)
Type: cell-based, mouse
Settings: 72 hours; 3000 cells per well, 96-well plates; read-out: Cell viability IC50, nM, Ba/F3 ERBB2-P780_Y781insGSP
Method: Cells were treated with compounds, and cell viability was measured as a metric of kinase inhibition. The Ba/F3 cell line is IL-3-dependent mouse cell line derived from the C3H mouse strain. […] Similarly, Ba/F3 cell lines engineered to express EGFR, ERBB2, or ERBB2 mutants were grown, harvested, counted and seeded at 3000 cells per well in 96-well plates for the data sets shown in Tables B3-B4, and seeded at 300 cells per well in 384-well plates for the data set shown in Table B5. […]
reported-endpoint: log10 GI50 (log10 of the value in nM)
Values below are the log10 of the recorded GI50, with nM as the unit.

>>> recorded_measurement("CC#CC(=O)Nc1ccc2ncnc(Nc3ccc(Oc4cnc(C)cn4)cc3)c2c1 [Compound 10]")
1.20
>>> recorded_measurement("CC#CC(=O)Nc1ccc2ncnc(Nc3ccc(Oc4ccc(C)nc4)cc3)c2c1 [Compound 9]")
0.74

Task item: Give a short answer stating reported log10 GI50 for CC#CC(=O)Nc1ccc2ncnc(Nc3ccc(Cc4ccn5ncnc5c4)cc3)c2c1 [Compound 14] .
Reply: 0.58

----------
Measured GI50, listed per entry.
molecular target: Ba/F3 ERBB2 wt (Homo sapiens, UniProt P04626); construct: Ba/F3 cell lines were engineered to express human ERBB2 or EGFR kinases, rendering the cells IL-3 independent; test: Cell viability assay (CellTiter Glo); format: cell-based, mouse; settings: 72 hours; 3000 cells per well, 96-well plates; read-out: Cell viability IC50, nM, Ba/F3 ERBB2 wt
Sequence (P04626 whole entry, change not shown): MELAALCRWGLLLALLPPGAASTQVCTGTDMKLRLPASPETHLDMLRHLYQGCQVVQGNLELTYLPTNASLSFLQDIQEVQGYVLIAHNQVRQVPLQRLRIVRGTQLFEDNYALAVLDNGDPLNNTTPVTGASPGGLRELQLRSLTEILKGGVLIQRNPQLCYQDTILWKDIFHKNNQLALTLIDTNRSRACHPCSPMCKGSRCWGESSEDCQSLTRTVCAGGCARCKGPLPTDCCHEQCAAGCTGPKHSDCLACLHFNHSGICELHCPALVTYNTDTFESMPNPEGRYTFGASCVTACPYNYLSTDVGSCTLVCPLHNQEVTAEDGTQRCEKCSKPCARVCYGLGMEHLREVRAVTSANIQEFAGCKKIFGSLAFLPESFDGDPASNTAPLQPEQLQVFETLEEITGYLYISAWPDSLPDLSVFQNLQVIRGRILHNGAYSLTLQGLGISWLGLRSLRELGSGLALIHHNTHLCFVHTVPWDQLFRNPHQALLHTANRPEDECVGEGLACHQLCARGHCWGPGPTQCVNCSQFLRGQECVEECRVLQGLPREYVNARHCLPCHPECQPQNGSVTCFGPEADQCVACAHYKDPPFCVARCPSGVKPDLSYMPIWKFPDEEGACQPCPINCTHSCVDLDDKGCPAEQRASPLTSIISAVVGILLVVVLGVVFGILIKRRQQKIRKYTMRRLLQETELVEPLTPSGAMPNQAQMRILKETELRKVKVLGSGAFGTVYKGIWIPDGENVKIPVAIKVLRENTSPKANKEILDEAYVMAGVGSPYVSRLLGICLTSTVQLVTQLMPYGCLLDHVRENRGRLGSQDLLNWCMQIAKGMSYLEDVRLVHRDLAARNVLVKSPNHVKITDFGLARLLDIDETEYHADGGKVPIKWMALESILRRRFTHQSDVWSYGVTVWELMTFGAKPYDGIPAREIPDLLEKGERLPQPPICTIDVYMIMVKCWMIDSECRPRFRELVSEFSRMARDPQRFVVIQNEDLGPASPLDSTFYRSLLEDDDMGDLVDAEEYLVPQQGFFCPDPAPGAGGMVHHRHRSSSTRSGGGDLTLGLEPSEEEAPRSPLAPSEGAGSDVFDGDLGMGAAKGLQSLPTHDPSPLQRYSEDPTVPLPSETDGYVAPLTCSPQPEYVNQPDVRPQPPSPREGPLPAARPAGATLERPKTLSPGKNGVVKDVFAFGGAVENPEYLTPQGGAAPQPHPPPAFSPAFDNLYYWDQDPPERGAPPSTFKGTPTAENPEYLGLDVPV
Value and unit, in that order.

Sample answers from the record:
>>> recorded_measurement("Cc1cc(Nc2ncnc3ccc(NC4=NC(C)(C)CO4)cc23)ccc1Oc1ccn2ncnc2c1 [Tucatinib, tucatinib, reference compound]")
"26.5 nM"
>>> recorded_measurement("CC#CC(=O)Nc1ccc2ncnc(Nc3ccc(Oc4cnc(C)cn4)cc3)c2c1 [Compound 10]")
"13.1 nM"
>>> recorded_measurement("CC#CC(=O)Nc1ccc2ncnc(Nc3ccc(Oc4ccc(C)nc4)c(C)c3)c2c1 [Compound 5]")
"2.3 nM"

Here is another molecule to look at.
Task item: Give a short answer stating reported GI50 for CC#CC(=O)Nc1cc2c(Nc3ccc(Oc4ccn5ncnc5c4)c(C)c3)ncnc2cc1OCCN(C)C [Compound 150] .
Reply: 2.12 nM

Recorded values, source patent US20230265098A1.
